B1: LINE1-mini (parent)
chain: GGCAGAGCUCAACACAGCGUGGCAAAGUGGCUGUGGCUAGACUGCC

# Variants of: B1
# measurement description: self-cleavage, relative activity (ratio to wild type); higher = more cleavage; in vitro, sequencing; the parent is a self-cleaving ribozyme
endpoint label: self-cleavage
Write the number on its own, no unit after it.

Note to self: self-cleavage recorded for G2A G19A was 1.72

Note to self: self-cleavage recorded for A6G U34G was 0.04

Note to self: self-cleavage recorded for G1C G30A was 0.18

Note to self: self-cleavage recorded for A14C A39G was 0.04

Note to self: self-cleavage recorded for U32G G44U was 0.05

Note to self: self-cleavage recorded for C13A G40U was 0.09

Note to self: self-cleavage recorded for `U28A` was 0.71

Note to self: self-cleavage recorded for G17A C45A was 0.13

Note to self: self-cleavage recorded for C23G C45G was 0.77

Note to self: self-cleavage recorded for A12C G36U was 0.03

Note to self: self-cleavage recorded for C3U A25U was 0.52

Note to self: self-cleavage recorded for G5A G22U was 0.14

Note to self: self-cleavage recorded for G7A U28C was 0.11

Note to self: self-cleavage recorded for G30U C46U was 1.24

Note to self: self-cleavage recorded for A16C C45A was 0.07

Note to self: self-cleavage recorded for U9C G35C was 0.04

Note to self: self-cleavage recorded for C37A A39U was 0.22

Note to self: self-cleavage recorded for A4G G19A was 0.95

Note to self: self-cleavage recorded for U9G U20A was 0.07

Note to self: self-cleavage recorded for G1U G35U was 0.17

Note to self: self-cleavage recorded for A11C G36A was 0.04
